Data origin, for the record: patent US12581252B2

I'd be grateful if you could share measured IC50 for these entries.
- study_system: H1047R PIK3CA enzyme (Homo sapiens, UniProt P42336, H1047R)
- Sequence (P42336 whole entry H1047R): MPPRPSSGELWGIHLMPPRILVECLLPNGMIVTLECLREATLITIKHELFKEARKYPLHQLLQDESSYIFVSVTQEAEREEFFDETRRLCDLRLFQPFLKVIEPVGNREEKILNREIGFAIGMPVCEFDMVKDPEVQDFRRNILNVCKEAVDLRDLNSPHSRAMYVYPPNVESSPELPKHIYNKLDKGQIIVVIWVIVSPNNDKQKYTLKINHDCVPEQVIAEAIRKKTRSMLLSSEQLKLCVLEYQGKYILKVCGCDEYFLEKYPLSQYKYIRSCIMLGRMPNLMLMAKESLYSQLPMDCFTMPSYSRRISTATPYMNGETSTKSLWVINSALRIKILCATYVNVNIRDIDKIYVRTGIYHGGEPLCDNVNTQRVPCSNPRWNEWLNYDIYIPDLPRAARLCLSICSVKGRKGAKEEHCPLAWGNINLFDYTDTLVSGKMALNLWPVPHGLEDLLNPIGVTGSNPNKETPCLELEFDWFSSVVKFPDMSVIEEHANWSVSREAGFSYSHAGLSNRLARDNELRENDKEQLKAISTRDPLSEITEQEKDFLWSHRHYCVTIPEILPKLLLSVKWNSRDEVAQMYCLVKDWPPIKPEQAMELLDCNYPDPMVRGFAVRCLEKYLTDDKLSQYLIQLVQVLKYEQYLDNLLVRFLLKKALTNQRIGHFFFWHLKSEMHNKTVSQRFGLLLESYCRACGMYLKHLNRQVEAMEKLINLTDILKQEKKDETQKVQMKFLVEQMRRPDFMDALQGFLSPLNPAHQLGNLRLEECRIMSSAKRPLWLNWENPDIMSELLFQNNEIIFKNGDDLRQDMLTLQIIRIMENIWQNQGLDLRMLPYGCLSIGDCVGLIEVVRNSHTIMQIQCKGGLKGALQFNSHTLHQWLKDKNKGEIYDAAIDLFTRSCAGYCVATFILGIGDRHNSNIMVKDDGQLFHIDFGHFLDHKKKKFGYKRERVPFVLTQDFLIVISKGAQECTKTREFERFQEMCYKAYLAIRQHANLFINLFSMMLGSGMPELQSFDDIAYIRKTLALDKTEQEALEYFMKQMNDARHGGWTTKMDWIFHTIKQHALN
- Sequence (P27986 whole entry partner): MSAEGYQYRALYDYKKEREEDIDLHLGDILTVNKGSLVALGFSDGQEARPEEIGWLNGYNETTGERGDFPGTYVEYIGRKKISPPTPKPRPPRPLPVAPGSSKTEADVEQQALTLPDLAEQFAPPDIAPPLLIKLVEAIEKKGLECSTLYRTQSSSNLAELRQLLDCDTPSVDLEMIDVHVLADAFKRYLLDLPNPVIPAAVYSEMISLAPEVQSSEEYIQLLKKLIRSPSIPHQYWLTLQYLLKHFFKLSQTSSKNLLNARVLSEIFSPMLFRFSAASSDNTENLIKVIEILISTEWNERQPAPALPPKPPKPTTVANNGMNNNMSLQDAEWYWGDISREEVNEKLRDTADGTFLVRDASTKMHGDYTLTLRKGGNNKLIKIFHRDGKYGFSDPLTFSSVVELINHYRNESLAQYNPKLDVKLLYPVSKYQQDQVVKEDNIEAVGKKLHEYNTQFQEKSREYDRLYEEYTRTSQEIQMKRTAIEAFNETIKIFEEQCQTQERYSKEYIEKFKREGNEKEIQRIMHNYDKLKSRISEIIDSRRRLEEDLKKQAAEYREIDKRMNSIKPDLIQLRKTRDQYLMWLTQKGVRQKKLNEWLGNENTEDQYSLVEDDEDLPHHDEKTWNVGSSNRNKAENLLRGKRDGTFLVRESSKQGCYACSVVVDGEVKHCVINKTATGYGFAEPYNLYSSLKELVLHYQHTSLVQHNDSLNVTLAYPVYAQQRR
- protocol_description: ADP-Glo Biochemical PIK3CA Kinase Assay

Q: I would be grateful if you could share the reported IC50 for O=C(Nc1cc(Br)cc2c1C(c1cc(F)ccc1Cl)NC2=O)c1nc2ccccc2[nH]1 (stereo not shown) [Compound I-1617] .
A: 1 to 10 µM

Q: I would be grateful if you could share the reported IC50 for NCCc1cc(NC(=O)N2C[C@@](O)(C(F)(F)F)c3cc(F)ccc32)c2c(c1)C(=O)N[C@@H]2c1cc(F)ccc1Cl (single isomer, unassigned) [Compound I-2583] .
A: 1 to 10 µM

Q: I would be grateful if you could share the reported IC50 for CC(C)(O)c1cc(NC(=O)c2cc(F)cc(Cl)c2)c2c(c1)C(=O)N[C@@H]2c1cc(F)ccc1Cl [Compound I-299] .
A: 10 to 100 µM

Q: I would be grateful if you could share the reported IC50 for O=C(Nc1cc(OS(=O)(=O)F)cc2c1C(c1cc(F)ccc1Cl)NC2=O)c1cc(F)cc(C(F)(F)F)c1 (stereo not shown) [Compound I-483] .
A: ≤ 0.1 µM

Q: I would be grateful if you could share the reported IC50 for CSc1nc(NC(=O)c2cc(F)cc(C(F)(F)F)c2)c2c(n1)C(=O)NC2c1ccccc1Cl (stereo not shown) [Compound I-183] .
A: 1 to 10 µM

Q: I would be grateful if you could share the reported IC50 for Cc1nccn1-c1cc(NC(=O)N2C[C@](O)(C(F)(F)F)c3cc(F)ccc32)c2c(c1)C(=O)N[C@@H]2c1cc(F)ccc1Cl (single isomer, unassigned) [Compound I-2662] .
A: 1 to 10 µM

Q: I would be grateful if you could share the reported IC50 for Cn1cc(-c2cc(NC(=O)c3cc(F)cc(Cl)c3)c3c(n2)C(=O)N[C@H]3c2cc(F)ccc2Cl)cn1 [Compound I-386] .
A: ≤ 0.1 µM

Q: I would be grateful if you could share the reported IC50 for O=C1NC(c2cc(F)ccc2Cl)c2c(Nc3nc4ccccc4[nH]3)cc(-c3ccc4ncnn4c3)cc21 (stereo not shown) [Compound I-1727] .
A: 1 to 10 µM

Q: I would be grateful if you could share the reported IC50 for O=C1NC(c2cc(F)ccc2Cl)c2c(NC(=O)N3C[C@@H](C(F)(F)F)[C@@H](O)C3)cc(-c3ccc4ncnn4c3)cc21 (single isomer, unassigned) [Compound I-1978] .
A: 1 to 10 µM

Q: I would be grateful if you could share the reported IC50 for Cc1ccccc1C1NC(=O)c2cccc(Nc3nc(C)c4ccccc4n3)c21 (stereo not shown) [Compound I-28] .
A: 10 to 100 µM

Q: I would be grateful if you could share the reported IC50 for COC(=O)c1cc(Nc2cccc3c2C(c2cc(F)ccc2Cl)NC3=O)ncc1C(F)(F)F (stereo not shown) [Compound I-1238] .
A: 1 to 10 µM

Q: I would be grateful if you could share the reported IC50 for CN(C)c1cc(NC(=O)N2C[C@@](O)(C(F)(F)F)c3cc(F)ccc32)c2c(n1)C(=O)N[C@H]2c1cc(F)ccc1Cl (single isomer, unassigned) [Compound I-2691] .
A: 1 to 10 µM

Q: I would be grateful if you could share the reported IC50 for O=C1NC(c2cc(F)ccc2Cl)c2c(NC(=O)c3cc(F)cc4cn[nH]c34)cccc21 (stereo not shown) [Compound I-595] .
A: 1 to 10 µM

----------
- study_system: H1047R PIK3CA enzyme (Homo sapiens, UniProt P42336, H1047R)
- protocol_description: ADP-Glo Biochemical PIK3CA Kinase Assay
I'd be grateful if you could share measured IC50 for these entries.

Q: I would be grateful if you could share the reported IC50 for CC(C#N)c1cc(NC(=O)c2cc(F)cc(C(F)(F)F)c2)c2c(c1)C(=O)N[C@@H]2c1cc(F)ccc1Cl (stereo partly shown) .
A: 1000 to 10000 nM

Q: I would be grateful if you could share the reported IC50 for "CC(C)n1cc(-c2cc(NC(=O)c3cc(F)cc(C(F)(F)F)c3)c3c(n2)C(=O)N[C@@H]3c2cc(F)ccc2Cl)ccc1=O" .
A: 500 to 1000 nM

Q: I would be grateful if you could share the reported IC50 for Cc1ccccc1C1NC(=O)c2cccc(NC(=O)c3cc(F)cc4cc[nH]c34)c21 (stereo not shown) .
A: 100 to 500 nM

Q: I would be grateful if you could share the reported IC50 for CS(=O)(=O)c1cc(-c2ccc3ncnn3c2)cc2c1C(c1cc(F)ccc1Cl)NC2=O (stereo not shown) .
A: 10000 to 100000 nM

Q: I would be grateful if you could share the reported IC50 for Cc1ncncc1-c1cc(NC(=O)c2cc(F)cc(C(F)(F)F)c2)c2c(c1)C(=O)NC2c1cc(F)ccc1Cl (stereo not shown) .
A: ≤ 100 nM

Q: I would be grateful if you could share the reported IC50 for O=C1NC(c2cc(F)ccc2Cl)c2c(NC(=O)N3CCc4c(Cl)cccc43)cccc21 (stereo not shown) .
A: 1000 to 10000 nM

Q: I would be grateful if you could share the reported IC50 for CC(C)(O)c1cc(NC(=O)N2C[C@H](O)c3ccccc32)c2c(c1)C(=O)N[C@H]2c1cc(F)ccc1Cl (single isomer, unassigned) .
A: 500 to 1000 nM

----------
- study_system: H1047R PIK3CA enzyme (Homo sapiens, UniProt P42336, H1047R)
- protocol_description: ADP-Glo Biochemical PIK3CA Kinase Assay
- Protocol: Compounds to be assayed were plated in 16 doses of 1:2 serial dilutions (20 nL volume each well) on a 1536-well plate, and the plate warmed to room temperature. […] To the well was added 1 μL of 200 μM ATP and 20 μM of diC8-PIP2 in Substrate Assay Buffer (50 mM HEPES pH7.4, 50 mM NaCl, 5 mM DTT and 0.03% CHAPS) to start the reaction, and the plate was shaken for 10 seconds, then spun briefly at 1500 rpm, and then incubated for 60 minutes at room temperature. […]
measured_metric: IC50

Q: I would be grateful if you could share the reported IC50 for "O=C(CCC(F)(F)F)Nc1cccc2c1[C@H](c1cc(F)ccc1Cl)NC2=O" .
A: 10 to 100 µM

Q: I would be grateful if you could share the reported IC50 for O=C(Nc1cc(-c2ccncc2C(=O)O)cc2c1C(c1cc(F)ccc1Cl)NC2=O)c1cc(F)cc(C(F)(F)F)c1 (centres unmarked) .
A: 0.1 to 0.5 µM

Q: I would be grateful if you could share the reported IC50 for "Cn1nc(C(F)F)cc1-c1cc(NC(=O)c2cc(F)cc(C(F)(F)F)c2)c2c(c1)C(=O)N[C@@H]2c1cc(F)ccc1Cl" .
A: 1 to 10 µM

Q: I would be grateful if you could share the reported IC50 for "Cn1c(Cl)cc(C(=O)Nc2cc(Br)cc3c2[C@H](c2cc(F)ccc2Cl)NC3=O)cc1=O" .
A: 10 to 100 µM

Q: I would be grateful if you could share the reported IC50 for O=C(Nc1ccc(C(F)(F)F)cc1)c1cccc2c1C(c1cc(F)ccc1Cl)NC2=O (centres unmarked) .
A: 10 to 100 µM

Q: I would be grateful if you could share the reported IC50 for CC(C1CCN(C(=O)Nc2cccc3c2C(c2cc(F)ccc2Cl)NC3=O)C1)C(F)(F)F (mixture of isomers) .
A: 10 to 100 µM

Q: I would be grateful if you could share the reported IC50 for O=C(Cn1ncc2ccccc21)Nc1cc(Br)cc2c1C(c1cc(F)ccc1Cl)NC2=O (centres unmarked) .
A: 10 to 100 µM

Q: I would be grateful if you could share the reported IC50 for [2H]c1nc2ccc(-c3cc(NC(=O)c4cc(F)cc(C(F)(F)F)c4)c4c(c3)C(=O)N[C@H]4c3cc(F)ccc3Cl)cn2n1 (stereo in doubt) .
A: ≤ 0.1 µM

Q: I would be grateful if you could share the reported IC50 for O=C1NC(c2cc(F)ccc2C(F)F)c2c(NC(=O)c3nsc4ccccc34)cccc21 (centres unmarked) .
A: ≤ 0.1 µM

Q: I would be grateful if you could share the reported IC50 for COCc1cc(NC(=O)c2cc(F)cc(C(F)(F)F)c2)c2c(c1)C(=O)NC2c1cc(F)ccc1Cl (centres unmarked) .
A: ≤ 0.1 µM

Q: I would be grateful if you could share the reported IC50 for N#C[C@H]1CCN(C(=O)Nc2cc(-c3ccc4ncnn4c3)cc3c2C(c2cc(F)ccc2Cl)NC3=O)C1 (mixture of isomers) .
A: 10 to 100 µM

Q: I would be grateful if you could share the reported IC50 for O=C1NC(c2cc(F)ccc2Cl)c2c(NC(=O)c3noc4c3COCC4)cccc21 (centres unmarked) .
A: 10 to 100 µM

Q: I would be grateful if you could share the reported IC50 for "O=C(Nc1cc(-c2ccc(=O)n(C(F)F)c2)cc2c1[C@@H](c1cc(F)ccc1Cl)NC2=O)c1cc(F)cc(C(F)(F)F)c1" .
A: 1 to 10 µM

Q: I would be grateful if you could share the reported IC50 for COc1ccc(-c2cc(NC(=O)c3cc(F)cc(C(F)(F)F)c3)c3c(c2)C(=O)NC3c2cc(F)ccc2Cl)nn1 (centres unmarked) .
A: ≤ 0.1 µM
